Tested on: Fibroblast
test_description: Multiplex assay against human fibroblast
Format: toxicity, cell-based
condition_details: 24 h, 1 µM, compound concentration 1 uM, replicate 2
Lab note - cut at 6% for Population Mitochondria Different-Phenotype (%): T if strictly below, F if not.

compound="Cl.Clc1ccc2nsnc2c1NC1=NCCN1 [TIZANIDINE HYDROCHLORIDE]" experimental_target=Fibroblast cat=T
compound=N[C@@]1(C(=O)O)CO[C@H]2[C@H](C(=O)O)[C@H]21 experimental_target=Fibroblast cat=F
compound="Cc1ccccc1C(=O)Nc1ccc(C(=O)N2CCCC(N(C)C)c3ccccc32)cc1.Cl (centres undefined)" experimental_target=Fibroblast cat=T
compound=CCNC1(C(N)=O)CCN(c2ncnc3c2nc(-c2ccccc2Cl)n3-c2ccc(Cl)cc2)CC1 experimental_target=Fibroblast cat=F
compound=N#Cc1c(N)nc(SCc2csc(-c3ccc(Cl)cc3)n2)c(C#N)c1-c1ccc(OCCO)cc1 experimental_target=Fibroblast cat=F
compound=CN(C)CCCc1cc(C(=O)Nc2ccc(-c3ccncc3)cc2)ccc1O.Cl.Cl experimental_target=Fibroblast cat=F
compound=Cc1ccc(F)cc1C(=O)Nc1ccc(C(=O)N2Cc3cccn3Cc3ccccc32)c(Cl)c1 experimental_target=Fibroblast cat=T

* * *

System: HEK-293T
test_description: Multiplex assay against HEK293T
Type: toxicity, cell-based
condition_details: human, 24 h, 1 µM, compound concentration 1 uM, replicate 1
// reported Population Healthy Nuclei (%) for each item listed
measurement_type: Population Healthy Nuclei (%)

compound="CC1(COc2ccc3c(c2)ncn3-c2ccc3cccc(N4CCC(N)CC4)c3n2)COC1 [CRENOLANIB]" measured=66%
compound="CCNC1(C(N)=O)CCN(c2ncnc3c2nc(-c2ccccc2Cl)n3-c2ccc(Cl)cc2)CC1 [OTENABANT]" measured=80%
compound=CCOc1c2c(c(OCC)c3ncccc13)CN(c1ccc(CS(=O)(=O)NC(=O)Cc3ccccc3OC)cc1C)C2=O measured=73%
compound="Cc1ccc(/C(=C\\CN2CCCC2)c2ccccn2)cc1 [TRIPROLIDINE]" measured=78%
compound="CCCC(CCC)C(=O)O [VALPROIC ACID]" measured=78%
compound=CN1CCN(c2nc3cc(C(F)(F)F)ccc3n3cccc23)CC1.O=C(O)/C=C\C(=O)O.O=C(O)/C=C\C(=O)O measured=81%
compound="O=C(O)Cc1ccccc1Nc1c(Cl)cccc1Cl [DICLOFENAC]" measured=76%
compound="c1cc(OCCCN2CCCCC2)ccc1CN1CCCCC1 [JNJ-5207852]" measured=82%
compound="C[C@H]1[C@H]2CC[C@H]3[C@@H]4CC=C5C[C@@H](N(C)C)CC[C@]5(C)[C@H]4CC[C@]23CN1C [CONESSINE]" measured=80%
compound="Cc1ccccc1C(=O)Nc1ccc(C(=O)N2CCCC(N(C)C)c3ccccc32)cc1.Cl (centres undefined)" measured=79%
compound=Oc1c(CN2CCN(c3ccccn3)CC2)cc(Cl)c2cccnc12 measured=84%
compound="CC(=O)NCCc1c(Cc2ccccc2)[nH]c2ccccc12 [LUZINDOLE]" measured=75%
compound="Cc1ccc(C(C)(O)c2nc3ccccc3s2)c(C)c1 (centres undefined)" measured=73%
compound=COc1ccccc1N1CCN(CCCCNC(=O)c2ccc3ccccc3c2)CC1.Cl measured=78%
compound="O=S(=O)(c1ccccc1)c1cnc2c(N3CCNCC3)cccc2c1 [INTEPIRDINE]" measured=80%
compound=CCCn1c(=O)c2[nH]c(C3CCCC3)nc2n(CCC)c1=O measured=78%
compound=COc1cc(C(=O)N(CCCc2ccccc2)Cc2ccc(CC(=O)O)cc2)cc(OC)c1C measured=78%
compound="C[C@@H]1C[C@H]2[C@@H]3CCC4=CC(=O)C=C[C@]4(C)[C@@]3(F)[C@@H](O)C[C@]2(C)[C@@]1(O)C(=O)CO [DEXAMETHASONE]" measured=78%
compound=COc1c(C)cc(NC(=O)c2nn(Cc3ccc(F)cc3)c3c2CN(C(=O)c2ccc[nH]2)C[C@]3(C)C(N)=O)cc1C measured=80%

* * *

// reported Population Membrane Permeable-Phenotype (%) for each item listed
System: U2OS
test_description: Multiplex assay against U2OS
Format: toxicity, cell-based
condition_details: human, 12 h, 10 µM, compound concentration 10 uM, replicate 2
measurement_type: Population Membrane Permeable-Phenotype (%)

compound=CN1CCN(c2nc3cc(C(F)(F)F)ccc3n3cccc23)CC1.O=C(O)/C=C\C(=O)O.O=C(O)/C=C\C(=O)O measured=13
compound=Cc1nc2ccc(Oc3ccc(F)cc3)cc2c(=O)n1C[C@H]1CCCN(C(C)C)C1.Cl measured=25
compound="CC(=O)NCCc1c(Cc2ccccc2)[nH]c2ccccc12 [LUZINDOLE]" measured=5
compound=CC[C@H]1OC(=O)[C@H](C)[C@@H](O[C@H]2C[C@@](C)(OC)[C@@H](O)[C@H](C)O2)[C@H](C)[C@@H](O[C@@H]2O[C@H](C)C[C@H](N(C)C)[C@H]2O)[C@@]2(C)CC(C)=C(O2)[C@H](C)[C@@H](O)[C@]1(C)O measured=72

* * *

Tested on: U2OS
test_description: Multiplex assay against U2OS
Format: toxicity, cell-based
condition_details: human, 12 h, 10 µM, compound concentration 10 uM, replicate 1
measurement_type: Population Mitotic Cells (%)

molecule="CC(C)(C)c1ccc(S(=O)(=O)Nc2ccc(Cl)cc2C(=O)c2cc[n+]([O-])cc2)cc1 [VERCIRNON]" readout_unit=% measured=22
molecule=CCOc1c2c(c(OCC)c3ncccc13)CN(c1ccc(CS(=O)(=O)NC(=O)Cc3ccccc3OC)cc1C)C2=O readout_unit=% measured=18
molecule=O=C(NCCO)c1cccc(-c2cc(Nc3ccc(OC(F)(F)F)cc3)ncn2)c1 readout_unit=% measured=15
molecule="CC(=O)NCCc1c(Cc2ccccc2)[nH]c2ccccc12 [LUZINDOLE]" readout_unit=% measured=18
molecule=CN1CCN(c2nc3cc(C(F)(F)F)ccc3n3cccc23)CC1.O=C(O)/C=C\C(=O)O.O=C(O)/C=C\C(=O)O readout_unit=% measured=33

* * *

Test system: Fibroblast
test_description: Multiplex assay against human fibroblast
Assay type: toxicity, cell-based
condition_details: 48 h, 10 µM, compound concentration 10 uM, replicate 2
// reported Population Healthy Nuclei (%) for each item listed
measurement_type: Population Healthy Nuclei (%)

compound=N[C@@]1(C(=O)O)CO[C@H]2[C@H](C(=O)O)[C@H]21 measured=56
compound=CSCC[C@H](NC=O)C(=O)N[C@@H](CC(C)C)C(=O)N[C@@H](Cc1ccccc1)C(=O)O measured=44
compound="CCCN1CCC[C@@H]2Cc3n[nH]cc3C[C@H]21.Cl [QUINPIROLE HYDROCHLORIDE]" measured=48
compound=O=C(NCCO)c1cccc(-c2cc(Nc3ccc(OC(F)(F)F)cc3)ncn2)c1 measured=47
compound=O=C(NCC(=O)N1CC[C@H](N[C@H]2CC[C@@](O)(c3ccc(-c4ncccn4)cn3)CC2)C1)c1cccc(C(F)(F)F)c1 measured=52
compound=COc1c(C)cc(NC(=O)c2nn(Cc3ccc(F)cc3)c3c2CN(C(=O)c2ccc[nH]2)C[C@]3(C)C(N)=O)cc1C measured=51
compound=CCCn1c(=O)c2[nH]c(C3CCCC3)nc2n(CCC)c1=O measured=45
compound="O=S(=O)(c1ccccc1)c1cnc2c(N3CCNCC3)cccc2c1 [INTEPIRDINE]" measured=38

* * *

System: U2OS
test_description: Multiplex assay against U2OS
Type: toxicity, cell-based
condition_details: human, 12 h, 10 µM, compound concentration 10 uM, replicate 2
Lab note - cut at 10% for Population Mitochondria Different-Phenotype (%): T if strictly below, F if not.

molecule="COc1ccc2c(c1)C(C(=O)N(Cc1ccc(N(C)C)cc1)c1ccc(C(C)C)cc1)CCC2.Cl (stereo not drawn)" cat=F
molecule=CN(C)c1ccnc2sc3c(=O)n(N4CCCCCC4)cnc3c12 cat=F
molecule=CCCC(CCC)C(=O)O cat=T
molecule=N[C@@]1(C(=O)O)CO[C@H]2[C@H](C(=O)O)[C@H]21 cat=T
molecule=COc1cc(C(=O)N(CCCc2ccccc2)Cc2ccc(CC(=O)O)cc2)cc(OC)c1C cat=T
molecule=O=C(O)Cc1ccccc1Nc1c(Cl)cccc1Cl cat=T
molecule="O=S(=O)(c1ccccc1)c1cnc2c(N3CCNCC3)cccc2c1 [INTEPIRDINE]" cat=F
molecule=O=C(NCCO)c1cccc(-c2cc(Nc3ccc(OC(F)(F)F)cc3)ncn2)c1 cat=F
molecule=Cc1ccc(/C(=C\CN2CCCC2)c2ccccn2)cc1 cat=F
molecule=Oc1c(CN2CCN(c3ccccn3)CC2)cc(Cl)c2cccnc12 cat=F
molecule="CCCN1CCC[C@@H]2Cc3n[nH]cc3C[C@H]21.Cl [QUINPIROLE HYDROCHLORIDE]" cat=T
molecule=c1cc(OCCCN2CCCCC2)ccc1CN1CCCCC1 cat=T

* * *

// reported Population Apoptotic (%) for each item listed
Tested on: HEK-293T
test_description: Multiplex assay against HEK293T
Type: toxicity, cell-based
condition_details: human, 12 h, 1 µM, compound concentration 1 uM, replicate 2
measurement_type: Population Apoptotic (%)

compound=CN1CCN(c2nc3cc(C(F)(F)F)ccc3n3cccc23)CC1.O=C(O)/C=C\C(=O)O.O=C(O)/C=C\C(=O)O measured=53
compound=CN(C)CCCc1cc(C(=O)Nc2ccc(-c3ccncc3)cc2)ccc1O.Cl.Cl measured=37
compound="Cc1ccc(/C(=C\\CN2CCCC2)c2ccccn2)cc1 [TRIPROLIDINE]" measured=50
compound=COc1cc(C(=O)N(CCCc2ccccc2)Cc2ccc(CC(=O)O)cc2)cc(OC)c1C measured=44
